src = paper PMC4832243

Each entry below carries its recorded activity at 10 µM.
- Tested on: UACC-257
- measurement_description: NCI 60 cell line panel (SRB), UACC-257
- Format: cell-based
- condition_label: Homo sapiens; UACC-257, Melanoma; single dose of 10 μM; read-out: Cell Growth Percent
# unit: % | format: bare number

Here is how some compounds turned out for activity at 10 µM.
CCOC(=O)c1c(C)oc2ncnc(Nc3ccc(NC(=O)Nc4cccc(Cl)c4)cc3)c12 [Compound 15d]: 83.9
CCOC(=O)c1c(C)oc2ncnc(Nc3ccc(C(=O)NCCc4ccccc4)cc3)c12 [Compound 14e]: 79.6
O=C(Nc1ccccc1)Nc1ccc(Nc2ncnc3sc4c(c23)CCCC4)cc1 [Compound 20a]: 93.5

# next compound below
Checklist item: activity at 10 µM tested on UACC-257, entry O=C(Nc1ccccc1)Nc1ccc(Oc2ncnc3sc4c(c23)CCCC4)cc1 [Compound 21a] , value? 90.4

====

- Tested on: UACC-257
- measurement_description: NCI 60 cell line panel (SRB), UACC-257
- Type: cell-based
- condition_label: Homo sapiens; UACC-257, Melanoma; single dose of 10 μM; read-out: Cell Growth Percent
observed_property: activity at 10 µM (%)
# unit: % | format: bare number

CCOC(=O)c1c(C)oc2ncnc(Nc3ccc(C(=O)Nc4cccc(Cl)c4)cc3)c12 [Compound 14a]: 117

Suppose we examine the compound Cc1cccc(NC(=O)Nc2ccc(Oc3ncnc4sc5c(c34)CCCC5)cc2)c1 [Compound 21b] ; what activity at 10 µM value has been reported? 107

Suppose we examine the compound O=C(Nc1ccc(Cl)cc1)Nc1ccc(Oc2ncnc3sc4c(c23)CCCC4)cc1 [Compound 21d] ; what activity at 10 µM value has been reported? 91.4

Suppose we examine the compound COc1cccc(NC(=O)Nc2ccc(Oc3ncnc4sc5c(c34)CCCC5)cc2)c1 [Compound 21c] ; what activity at 10 µM value has been reported? 100

====

Each entry below carries its recorded inhibition at 10 µM.
- system_under_test: c-Raf (Homo sapiens, UniProt P04049)
- Sequence (P04049 whole entry, species assumed): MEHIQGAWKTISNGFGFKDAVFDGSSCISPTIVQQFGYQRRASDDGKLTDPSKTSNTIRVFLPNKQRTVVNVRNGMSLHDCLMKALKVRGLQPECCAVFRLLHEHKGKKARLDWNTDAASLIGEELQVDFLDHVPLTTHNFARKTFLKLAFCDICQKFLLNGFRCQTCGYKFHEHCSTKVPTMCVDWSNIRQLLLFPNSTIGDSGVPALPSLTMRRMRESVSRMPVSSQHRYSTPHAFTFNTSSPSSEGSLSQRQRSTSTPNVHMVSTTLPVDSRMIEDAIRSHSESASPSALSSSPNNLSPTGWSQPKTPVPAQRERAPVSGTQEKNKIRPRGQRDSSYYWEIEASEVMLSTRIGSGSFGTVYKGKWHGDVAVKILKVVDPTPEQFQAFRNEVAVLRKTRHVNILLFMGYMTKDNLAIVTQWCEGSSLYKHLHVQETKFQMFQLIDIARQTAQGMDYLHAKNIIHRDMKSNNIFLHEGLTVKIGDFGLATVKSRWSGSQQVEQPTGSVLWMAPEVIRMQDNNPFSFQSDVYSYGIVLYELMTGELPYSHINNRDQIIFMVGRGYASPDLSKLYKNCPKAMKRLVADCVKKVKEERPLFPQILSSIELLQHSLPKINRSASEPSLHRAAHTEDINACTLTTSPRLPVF
- measurement_description: In vitro multiple-kinase inhibition assay, c-Raf
- Assay type: biochemical
# unit: % | format: bare number

Here is how some molecules turned out for inhibition at 10 µM.
CCOC(=O)c1c(C)oc2ncnc(Oc3ccc(NC(=O)Nc4ccc(C)c(Cl)c4)cc3)c12 [Compound 16e]: 53
Cc1cccc(NC(=O)Nc2ccc(Oc3ncnc4sc5c(c34)CCCC5)cc2)c1 [Compound 21b]: 35
Cc1ccc(NC(=O)Nc2ccc(Oc3ncnc4sc5c(c34)CCCC5)cc2)cc1Cl [Compound 21e]: 71

# next molecule below
Suppose we examine the molecule COc1cccc(NC(=O)Nc2ccc(Oc3ncnc4sc5c(c34)CCCC5)cc2)c1 [Compound 21c] ; what inhibition at 10 µM value has been reported? 26

====

- system_under_test: VEGFR-2 (KDR) (Homo sapiens, UniProt P35968)
- Construct: purchased BPS Bioscience 40301
- Sequence (P35968 20-1356): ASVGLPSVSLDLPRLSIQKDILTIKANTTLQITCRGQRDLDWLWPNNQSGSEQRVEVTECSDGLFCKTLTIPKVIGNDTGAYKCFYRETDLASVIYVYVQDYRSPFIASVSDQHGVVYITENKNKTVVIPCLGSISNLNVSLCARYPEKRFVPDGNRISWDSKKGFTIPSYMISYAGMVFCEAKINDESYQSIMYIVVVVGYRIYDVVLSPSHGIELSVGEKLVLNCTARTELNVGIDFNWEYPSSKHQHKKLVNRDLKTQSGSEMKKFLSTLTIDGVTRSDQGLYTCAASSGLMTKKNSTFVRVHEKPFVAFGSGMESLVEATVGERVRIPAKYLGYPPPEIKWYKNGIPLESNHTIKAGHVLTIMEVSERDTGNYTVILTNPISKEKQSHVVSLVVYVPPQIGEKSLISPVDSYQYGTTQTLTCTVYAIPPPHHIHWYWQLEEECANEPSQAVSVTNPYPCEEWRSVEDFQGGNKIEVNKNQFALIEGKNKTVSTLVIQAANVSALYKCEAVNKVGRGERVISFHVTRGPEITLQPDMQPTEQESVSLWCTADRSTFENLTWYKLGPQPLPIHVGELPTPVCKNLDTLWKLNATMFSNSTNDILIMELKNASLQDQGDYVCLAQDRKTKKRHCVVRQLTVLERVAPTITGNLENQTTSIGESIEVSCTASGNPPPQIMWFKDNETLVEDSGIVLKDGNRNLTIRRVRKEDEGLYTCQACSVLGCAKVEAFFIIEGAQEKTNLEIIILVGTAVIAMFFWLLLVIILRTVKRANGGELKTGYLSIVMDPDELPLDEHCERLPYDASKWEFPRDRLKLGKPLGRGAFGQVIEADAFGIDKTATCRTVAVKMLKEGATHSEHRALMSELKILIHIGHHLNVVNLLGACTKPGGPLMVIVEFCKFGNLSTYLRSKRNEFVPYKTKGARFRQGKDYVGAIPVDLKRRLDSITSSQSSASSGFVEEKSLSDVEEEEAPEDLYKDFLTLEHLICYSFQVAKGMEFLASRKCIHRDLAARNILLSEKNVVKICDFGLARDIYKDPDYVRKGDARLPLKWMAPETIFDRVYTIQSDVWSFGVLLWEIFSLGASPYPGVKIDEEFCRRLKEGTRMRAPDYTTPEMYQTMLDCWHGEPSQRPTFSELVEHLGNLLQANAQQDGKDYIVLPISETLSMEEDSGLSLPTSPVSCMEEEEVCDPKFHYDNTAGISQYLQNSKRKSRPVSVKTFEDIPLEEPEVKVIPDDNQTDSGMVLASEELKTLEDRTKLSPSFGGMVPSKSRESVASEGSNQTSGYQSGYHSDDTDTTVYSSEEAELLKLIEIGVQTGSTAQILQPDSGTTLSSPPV
- measurement_description: In vitro VEGFR-2 tyrosine kinase activity (Kinase-Glo Plus luminescence, BPS Bioscience)
- Assay type: biochemical
- condition_label: single dose concentration of 10 μM
observed_property: inhibition at 10 µM (%)
# unit: % | format: bare number

Suppose we examine the compound O=C(Nc1ccc(Cl)cc1)Nc1ccc(Nc2ncnc3sc4c(c23)CCCC4)cc1 [Compound 20e] ; what inhibition at 10 µM value has been reported? 32

Suppose we examine the compound CCOC(=O)c1c(C)oc2ncnc(Nc3ccc(NC(=O)c4ccc(Cl)cc4)cc3)c12 [Compound 13b] ; what inhibition at 10 µM value has been reported? 15

Suppose we examine the compound CCOC(=O)c1c(C)oc2ncnc(Nc3ccc(C(=O)Nc4cccc(Cl)c4)cc3)c12 [Compound 14a] ; what inhibition at 10 µM value has been reported? 5
